Ref: PubChem BioAssay (NCI)

- Test system: MCF7 breast
- Experiment Description: NCI-60 one-dose screen, 48 h (100 = growth as untreated, 0 = no growth, -100 = all killed)
- Condition Description: 10 µM unless noted
- Method: Growth inhibition of the MCF7 human tumor cell line is measured as a screen for anti-cancer activity. Cells are grown in 96 well plates and exposed to the test compound for 48 hours. Compounds are tested at a single concentration, which is 10^-5 M for most compounds. The reported endpoint is percent growth (GI% or GIPRCNT), where numbers from 0 - 100% represent growth inhibition, and numbers from -100% - 0 represent cell death. For example, a value of 40 represents 60% growth inhibition. […]
The panel holds about 83,000 compounds, 20% with a hit somewhere; the sample as a whole holds those more often.
Tag: 1 if measured growth is not below 20%, -1 if it is.

| Smiles Record | Assigned Category |
| --- | --- |
| O=C(NNc1nc2cc(F)ccc2n2c(CO)ccc12)c1cnccn1 | -1 |
| C=CCn1c(SCC(=O)Nc2ccc(C(=O)/C=C/c3ccc(Cl)cc3)cc2)nnc1-c1c[nH]c2ccccc12 | -1 |
| Cc1cc2ncc(-c3cc4ccccc4c(N4CCN(C)CC4)n3)nc2cc1C | -1 |
| ClC(Cl)c1nc(-c2ccco2)n2nc(-c3ccccc3)cc2n1 | -1 |
| O=C(Nc1ccc(N=Cc2c(O)[nH]c3ccccc23)cc1)Nc1nccs1 | 1 |
| NC(N)=Nc1ccc(Nc2cccc(Nc3ccc(Cl)c(C(F)(F)F)c3)c2)cn1 | -1 |
| O=C1/C(=C/C=C/c2ccco2)SC(=S)N1c1ccccc1 | 1 |
| COc1ccc(-c2cc(-c3ccc(Cl)cc3)c(C#N)c(=O)n2Cc2ccc(C(=O)O)cc2)cc1 | 1 |
| Cn1cc(-c2cc(N)n3nc(-c4cn(C)c5ccccc45)cc3n2)c2ccccc21 | 1 |
| O=C(CSc1nc2ccccc2c(=O)n1-c1ccccc1)Nc1cccc(C(=O)/C=C/c2ccccc2Cl)c1 | 1 |

----------
- Tested on: PC-3 prostate
- Experiment Description: NCI-60 one-dose screen, 48 h
- Condition Description: 10 µM unless noted
Compounds without any hit were thinned out: in the full panel of roughly 83,000, 20% have a hit. Activity calls are given as the source filed them. Rule for the calls: active = growth percent below 10; inactive = the rest.
Labels: class 1 (active), class 0 (inactive)

| Compound | Assigned Category |
| --- | --- |
| CC1(C)NCCC[C@]2(C)[C@H]3C/C(=N\O)C4[C@@H]5C[C@@](C)(CO)CC[C@]5(C)CC[C@@]4(C)[C@]3(C)CC[C@@H]12 (stereo partly drawn) | class 0 |
| O=c1c2ccccc2nc(COc2ccccc2)n1NS(=O)(=O)c1ccc(Cl)cc1 | class 0 |
| O=C(NNc1nc2cc(F)c(F)cc2n2cccc12)c1cnccn1 | class 0 |
| COc1cc(OC)cc(C(=O)Nc2cccc(C#Cc3cccc4[nH]nc(N)c34)c2)c1 | class 0 |
| COC[C@]12CCC(C)(C)C[C@H]1C1=CC[C@@H]3[C@@]4(C)CCCNC(C)(C)[C@@H]4CC[C@@]3(C)[C@]1(C)CC2 | class 1 |
| COc1ccc(/C=N/NC(=O)c2cn(C3CC3)c3c(OC)c(N4CC5CCCNC5C4)c(F)cc3c2=O)cc1 (stereo not drawn) | class 0 |
| COc1ccc(NC(=O)CSc2nnc(-c3ccc4nc(-c5ccccc5)[nH]c4c3)o2)cc1 | class 0 |
| COc1c(N2CC3CCCNC3C2)c(F)cc2c(=O)c(C(=O)N/N=C/c3c[nH]c4ccccc34)cn(C3CC3)c12 (stereo not drawn) | class 0 |

----------
- Tested on: RXF 393 renal
- Experiment Description: NCI-60 one-dose screen, 48 h
- Condition Description: 10 µM unless noted
Compounds without any hit were thinned out: in the full panel of roughly 83,000, 20% have a hit. Activity calls are given as the source filed them. The calls were made as follows: active = growth percent below 10; inactive = the rest.
Labels: active, inactive

| Smiles Record | Assigned Category |
| --- | --- |
| CC1(C)[C@@H](O)CC[C@]2(C)[C@H]3CC[C@@H]4[C@H]5[C@H](C(=O)/C=C\c6ccc([N+](=O)[O-])cc6)CC[C@]5(O)CC[C@@]4(C)[C@]3(C)CC[C@@H]12 | active |
| COc1ccccc1N1CCN(C2=CC(=O)C(C)=C(C)C2=O)CC1 | inactive |
| O=C(CCn1c[n+](CC(=O)c2ccc(F)cc2)c2ccccc21)Nc1cccc2cccnc12 | inactive |
| C#Cc1nc(C(C)=O)cs1 | inactive |
| N#Cc1cccc(/C(N)=N/C(N)=N/c2nc3ccccc3s2)c1 | inactive |
| Clc1cccc(/C=N/Nc2nc(N/N=C/c3cccc(Cl)c3Cl)nc(N3CCCCC3)n2)c1Cl | inactive |
| COc1ccc2[nH]cc(-c3csc4nc(-c5ccccc5)cn34)c2c1 | active |
| O=S(=O)(Nc1ccc(I)cc1Cl)c1ccc(-c2cnc(C3CC3)o2)cc1 | active |
| NC(N)=Nc1ccc(Oc2cccc(Nc3cccc(C(F)(F)F)c3)c2)cn1 | active |
| O=C1[C@H]2Cc3c([nH]c4ccccc34)[C@@H](c3ccc(Cl)cc3)N2C(=O)CN1C1CCN(Cc2ccccc2)CC1 | inactive |

----------
- System: SNB-75 CNS
- Experiment Description: NCI-60 one-dose screen, 48 h
- Condition Description: 10 µM unless noted
Compounds without any hit were thinned out: in the full panel of roughly 83,000, 20% have a hit. Calls of active or inactive are those of the source. Rule for the calls: active = growth percent below 10; inactive = the rest.
Labels: 1.0 = active, 0.0 = inactive

| Compound | Assigned Category |
| --- | --- |
| Cc1cc(C)cc(C(=O)Nc2cccc(C#Cc3cccc4[nH]nc(N)c34)c2)c1 | 0.0 |
| Cc1ccc(-c2nnc(SCc3ccc(O)c4ncccc34)o2)cc1 | 1.0 |
| Cc1ccc(S(=O)(=O)NCCNc2nc(Nc3ccc(N4CCN(C)CC4)cc3)nc3ccsc23)cc1 | 0.0 |
| COc1ccc(-c2nc3cccc(O)c3c(=O)n2Cc2ccccc2)cc1COc1ccc(NC(C)=O)cc1 | 0.0 |
| CC/C(=C/c1c(O)cccc1OC)c1ccc2c(OC)cccc2[o+]1 | 0.0 |
| COc1ccc2c(c1)c(CC(=O)[Se]CCC#N)c(C)n2C(=O)c1ccc(Cl)cc1 | 1.0 |
| Cc1ccc(CSc2nc(-c3ccc(Cl)cc3)c(C#N)c(N3CCOCC3)n2)cc1 | 0.0 |
| COc1ccc(-n2c(/C=C3\C(=O)Nc4ccccc43)ccc2CO)cc1 | 0.0 |
| COC[C@]12CCC(C)(C)C[C@H]1C1=CC[C@@H]3[C@@]4(C)CCCNC(C)(C)[C@@H]4CC[C@@]3(C)[C@]1(C)CC2 | 0.0 |
| O=C(NCCn1ccnc1)c1ccc(-c2nc3ccc4[nH]ncc4c3c3c2CCCC3)cc1 | 0.0 |
| COC(=O)c1[nH]nc2c1C1(C(=O)c3cccc4cccc1c34)C(C#N)=C(N)O2 (stereo not drawn) | 0.0 |
| C=C1CC[C@@H]2[C@](C)(CO)[C@H](O)CC[C@@]2(C)[C@@H]1C/C(O)=C1\CCOC1=O | 0.0 |
| Cc1cc(-c2ccc(Cl)cc2)n(Cc2nnc(SCC(=O)Nc3ccc(S(N)(=O)=O)cc3)n2C2CCCCC2)n1 | 0.0 |
| NS(=O)(=O)c1ccc(Nc2nc(N/N=C/c3ccccn3)nc(Nc3ccccc3)n2)cc1 | 1.0 |
| NC/C(=C/F)COc1ccc2nc(NCc3cccnc3)oc2c1 | 0.0 |
| N#C/C(=C\c1ccc(-c2ccc(Cl)cc2Cl)o1)c1ccc(F)cc1 | 0.0 |
| C=C(C)[C@@H]1CC[C@]2(COCCCNCCC#N)CC[C@]3(C)[C@H](CC[C@@H]4[C@@]5(C)CC[C@H](OCCCNCCC#N)C(C)(C)[C@@H]5CC[C@]43C)[C@@H]12 | 0.0 |
| CC1(C)CC[C@]2(C(=O)N3CCOCC3)CC[C@]3(C)C(=CC[C@@H]4[C@@]5(C)C/C(=C/c6ccccn6)C(=O)C(C)(C)[C@@H]5CC[C@]43C)[C@@H]2C1 | 0.0 |

----------
Consider the following compounds and their measured growth readings.
- System: MOLT-4 leukemia
- Experiment Description: NCI-60 one-dose screen, 48 h (100 = growth as untreated, 0 = no growth, -100 = all killed)
- Condition Description: 10 µM unless noted
The panel holds about 83,000 compounds, 20% with a hit somewhere; the sample as a whole holds those more often.

| Compound | Assayed Target | growth [%] |
| --- | --- | --- |
| CCNC(=O)N1CCc2cc(OC)c(OCCc3ccc(OC)c(N)c3)cc2C1c1ccc(C)cc1C (centres undefined) | MOLT-4 leukemia | 29.3 |
| COc1ccc2c(c1)c(CC(=O)[Se]CC(=O)O)c(C)n2C(=O)c1ccc(Cl)cc1 | MOLT-4 leukemia | 99.8 |
| CC1=CC(=O)C2=C(C)CC(OC(=O)CCc3ccccc3)[C@@H]3[C@H](OC(=O)[C@@H]3C)[C@@H]12 (some centres undefined) | MOLT-4 leukemia | 83.6 |
| C=CCn1c(-c2nc3ccc(C(=C(C#N)C#N)c4ccccc4)cc3[nH]2)cc2cc(Br)ccc21 | MOLT-4 leukemia | 36.4 |
| COC(=O)/C=C/c1c(C2(C)NC(=O)c3ccccc3N2)c(=O)oc2ccc(Cl)cc12 (centres undefined) | MOLT-4 leukemia | 101 |
| COc1ccccc1NCc1cccn1Cc1ccc(F)cc1 | MOLT-4 leukemia | 94 |
| CC1=N[C@@H]2CN(C(=O)OC(C)(C)C)C[C@@H]2n2c1cc1ccccc1c2=O | MOLT-4 leukemia | 106 |
| COc1cc2oc(-c3cccc(N)c3)cc(=O)c2c(OC)c1OC | MOLT-4 leukemia | 106 |
| Cc1ccc(NC(=O)CNc2cc(C(N)=O)cc(F)c2C)c(Cl)c1 | MOLT-4 leukemia | 90.5 |
| C=C(C=O)[C@@H]1CC[C@]2(C)[C@H](CC=C3[C@H]4[C@@H](C)[C@H](C)CC[C@]4(C(=O)OC)CC[C@]32C)[C@@]1(C)CCC#N | MOLT-4 leukemia | 1.4 |
| CCOC(=O)c1c(Nc2ccccc2)nn2c(-c3ccc(OC)cc3)ccnc12 | MOLT-4 leukemia | 82.5 |
| CCC(CC)N1C(=O)/C(=c2\sc3n(c2=O)NC2C(N=3)N(CC)C(=O)N2CC)c2ccccc21 (centres undefined) | MOLT-4 leukemia | 59.8 |
| Cc1cc2ncc(-c3cc4ccccc4c(N4CCN(C)CC4)n3)nc2cc1C | MOLT-4 leukemia | -8.83 |
| COc1cc(/C=C2\C(=O)Nc3ccccc32)ccc1OCc1ccc(F)cc1 | MOLT-4 leukemia | 96.8 |
| CC/C(=C/c1cc(OC)ccc1O)c1ccc2cc(OC)ccc2[o+]1 | MOLT-4 leukemia | 53.4 |
| N#Cc1cccc(/C(N)=N/C(N)=N/c2nc3ccccc3s2)c1 | MOLT-4 leukemia | 27.7 |
| NC(N)=Nc1ccc(Oc2cccc(NC(N)=Nc3ccc(Br)cc3)c2)cn1 | MOLT-4 leukemia | 65 |
| O=C(CN1CCN(c2cc(=O)n(-c3ccccc3)c3ccccc23)CC1)Nc1nc(-c2ccc(Cl)cc2)cs1 | MOLT-4 leukemia | 29 |
| COc1cc(-c2nnc(SCc3ccc(O)c4ncccc34)n2-c2ccccc2)cc(OC)c1OC | MOLT-4 leukemia | 4.98 |
